# Tested on: Blood
# method-notes: Inhibition of LPS-induced TNFalpha production in human whole blood by ELISA
# Assay type: functional
measured-metric: inhibitory concentration (µM)
Just the number please, in µM, no unit attached.

Param item = Cc1[nH]cnc1CNc1ccc2ncc(C#N)c(Nc3ccc(F)c(Cl)c3)c2c1 ; retrieve measured inhibitory concentration. 7.9

====

# Test system: Monocyte
# method-notes: Inhibition of LPS-induced TNFalpha production in human monocytes by ELISA
# Type: functional
measured-metric: inhibitory concentration (µM)
Form entry: value (µM) — number only.

substance-smiles: N#Cc1cnc2ccc(NCc3nccs3)cc2c1Nc1ccc(F)c(Cl)c1
unit-annotation: µM
inhibitory concentration: 0.6

Give the reported inhibitory concentration for Cc1c(CNc2ccc3ncc(C#N)c(Nc4ccc(F)c(Cl)c4)c3c2)ncn1C (system: Monocyte). 0.4

API: value(readout=inhibitory concentration, system=Monocyte) for record N#Cc1cnc2ccc(NCc3c[nH]cn3)cc2c1Nc1ccc(F)c(Cl)c1 0.46

Report inhibitory concentration for N#Cc1cnc2ccc(NCc3cccc[n+]3[O-])cc2c1Nc1ccc(F)c(Cl)c1 tested on Monocyte. 1.7

Request - read-out inhibitory concentration | tested on Monocyte | compound Cc1[nH]cnc1CNc1ccc2ncc(C#N)c(Nc3ccc(F)c(Cl)c3)c2c1 0.4

====

# target-of-assay: Mitogen-activated protein kinase kinase kinase 8 (Homo sapiens)
# method-notes: Inhibition of Tpl2 kinase by ELISA
measured-metric: pIC50
Bear in mind: pIC50 is minus log10 of a mol/L concentration; give just that figure.

substance-smiles: CCN1CCC[C@H]1CNc1ccc2ncc(C#N)c(Nc3ccc(F)c(Cl)c3)c2c1
pIC50: 6.74

substance-smiles: Cc1c(CNc2ccc3ncc(C#N)c(Nc4ccc(F)c(Cl)c4)c3c2)ncn1C
pIC50: 8.52

I have this compound here, CCN1CCC[C@@H]1CNc1ccc2ncc(C#N)c(Nc3ccc(F)c(Cl)c3)c2c1 , and I need its recorded pIC50. 5.15

Quick one: pIC50 for N#Cc1cccc(CNc2ccc3ncc(C#N)c(Nc4ccc(F)c(Cl)c4)c3c2)c1 ? 7.00

I have this compound here, Cc1[nH]cnc1CNc1ccc2ncc(C#N)c(Nc3ccc(F)c(Cl)c3)c2c1 , and I need its recorded pIC50. 8.52

====

# Test system: Blood
# method-notes: Inhibition of LPS-induced TNFalpha production in human whole blood by ELISA
# Format: functional
measured-metric: inhibitory concentration (µM)
Give the number; µM is assumed, so skip it.

Consider the reported inhibitory concentration for these compounds:
substance-smiles: Cc1ncn(CCN2CCOCC2)c1CNc1ccc2ncc(C#N)c(Nc3ccc(F)c(Cl)c3)c2c1
target-of-assay: Blood
inhibitory concentration [µM]: 13.2
--
substance-smiles: N#Cc1cnc2ccc(NCc3c[nH]cn3)cc2c1Nc1ccc(F)c(Cl)c1
target-of-assay: Blood
inhibitory concentration [µM]: 3.3
--
substance-smiles: Cc1c(CNc2ccc3ncc(C#N)c(Nc4ccc(F)c(Cl)c4)c3c2)ncn1C
target-of-assay: Blood
inhibitory concentration [µM]: 15.8

Kindly consider the entry below.
Data request, read-out inhibitory concentration, for N#Cc1cnc2ccc(NCc3cccc[n+]3[O-])cc2c1Nc1ccc(F)c(Cl)c1 7.8

====

# target-of-assay: Mitogen-activated protein kinase kinase kinase 8 (Homo sapiens, UniProt P41279)
# Sequence (P41279 whole entry): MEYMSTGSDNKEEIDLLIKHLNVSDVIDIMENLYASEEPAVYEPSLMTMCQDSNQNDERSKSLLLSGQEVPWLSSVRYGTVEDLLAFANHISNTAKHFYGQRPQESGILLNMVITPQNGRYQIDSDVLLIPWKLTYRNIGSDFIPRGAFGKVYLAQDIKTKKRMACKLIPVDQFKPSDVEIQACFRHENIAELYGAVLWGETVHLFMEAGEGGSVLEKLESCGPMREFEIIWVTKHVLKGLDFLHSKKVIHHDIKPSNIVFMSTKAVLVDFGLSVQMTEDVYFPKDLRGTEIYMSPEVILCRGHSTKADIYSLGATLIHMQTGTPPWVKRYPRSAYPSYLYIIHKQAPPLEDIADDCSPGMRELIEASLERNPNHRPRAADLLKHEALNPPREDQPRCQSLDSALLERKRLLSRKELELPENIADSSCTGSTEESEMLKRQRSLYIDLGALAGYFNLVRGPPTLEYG
# method-notes: Inhibition of Tpl2 kinase by ELISA
measured-metric: IC50

substance-smiles: N#Cc1cnc2ccc(Nc3ccccc3)cc2c1Nc1ccc(F)c(Cl)c1
measured-metric: IC50
value-observed: > 40 µM

Which IC50 is reported for this molecule? N#Cc1c(Nc2ccc(F)c(Cl)c2)c2cc(NCc3cnc[nH]3)ccc2[nH]c1=O > 40 µM

So what does the record say about IC50 for CC(C)Oc1cc2ncc(C#N)c(Nc3ccc(F)c(Cl)c3)c2cc1NCc1cnc[nH]1 ? > 40 µM

Which IC50 value is on record for N#Cc1cnc2ccc(CCc3ccccc3)cc2c1Nc1ccc(F)c(Cl)c1 ? > 10 µM

Param item = N#Cc1cnc2ccc(NCCN3CCOCC3)cc2c1Sc1ccc(F)c(Cl)c1 ; retrieve measured IC50. > 10 µM

Recorded IC50 of N#Cc1cnc2ccc(NCCN3CCOCC3)cc2c1Oc1ccc(F)c(Cl)c1 , please. > 40 µM

Requested read-out: IC50. Entry: N#Cc1cnc2cc(OC(F)(F)F)c(NCc3cnc[nH]3)cc2c1Nc1ccc(F)c(Cl)c1 > 40 µM
